Exercise: for every item that follows, state its recorded mass density.
# conditions used: 303.15 K; 5000 kPa; Liquid; Vibrating tube method
Give bare numbers, in kg/m3.

CC(C)C(C)C; 658.23
CCC(C)CC; 660.71
CCCC(C)C; 649.83

Now consider a different molecule.
In plain terms, `CCC(C)(C)C` has a documented mass density of 646.07

====

Exercise: for every item that follows, state its recorded mass density.
# conditions used: 298.15 K; 65000 kPa; Liquid; Vibrating tube method
Numbers only, in kg/m3.

# annotated cases, reported mass density shown
CC(C)C(C)C; 710.52
CCC(C)CC; 711.62
CCCC(C)C; 702.34

Now consider a different molecule.
In plain terms, `CCC(C)(C)C` has a documented mass density of 701.14

====

# conditions used: 313.15 K; 2000 kPa; Liquid; Vibrating tube method
endpoint label: mass density (kg/m3)
One number for each entry, in kg/m3.

# annotated cases, reported mass density shown
CC(C)C(C)C; 645.28
CCCC(C)C; 637.11
CCC(C)CC; 648.1

Now consider a different molecule.
In plain terms, `CCC(C)(C)C` has a documented mass density of 632.76

====

# conditions used: 288.15 K; 10000 kPa; Liquid; Vibrating tube method
Exercise: for every item that follows, state its recorded mass density.
One number for each entry, in kg/m3.

# annotated cases, reported mass density shown
CCC(C)(C)C; 664.88
CCC(C)CC; 678.66
CC(C)C(C)C; 676.37

Now consider a different compound.
In plain terms, `CCCC(C)C` has a documented mass density of 668.05

====

Exercise: for every item that follows, state its recorded mass density.
# conditions used: 318.15 K; 60000 kPa; Liquid; Vibrating tube method
Answers are plain numbers, in kg/m3.

# annotated cases, reported mass density shown
CCC(C)CC; 695.68
CCC(C)(C)C; 685.05
CCCC(C)C; 686.27

In plain terms, `CC(C)C(C)C` has a documented mass density of 694.5

====

# conditions used: 303.15 K; 65000 kPa; Liquid; Vibrating tube method
Exercise: for every item that follows, state its recorded mass density.
Answers are plain numbers, in kg/m3.

# annotated cases, reported mass density shown
CCCC(C)C; 699.14
CCC(C)(C)C; 697.92
CCC(C)CC; 708.41

Now consider a different molecule.
In plain terms, `CC(C)C(C)C` has a documented mass density of 707.12

====

Exercise: for every item that follows, state its recorded mass density.
# conditions used: 318.15 K; 30000 kPa; Liquid; Vibrating tube method
One number for each entry, in kg/m3.

# annotated cases, reported mass density shown
CCCC(C)C; 663.07
CC(C)C(C)C; 671.23

Here are 2 compounds. What values of mass density were reported for them?
1. CCC(C)(C)C
2. CCC(C)CC

660.78
672.89

====

# conditions used: 308.15 K; 10000 kPa; Liquid; Vibrating tube method
endpoint label: mass density (kg/m3)
Numbers only, in kg/m3.

# annotated cases, reported mass density shown
CCC(C)CC; 661.77
CCC(C)(C)C; 647.69
CC(C)C(C)C; 659.42

Now consider a different compound.
In plain terms, `CCCC(C)C` has a documented mass density of 651.1

====

# conditions used: 328.15 K; 5000 kPa; Liquid; Vibrating tube method
endpoint label: mass density (kg/m3)
Answers are plain numbers, in kg/m3.

# annotated cases, reported mass density shown
CCC(C)(C)C; 623.02
CC(C)C(C)C; 635.61
CCC(C)CC; 638.2

Now consider a different compound.
In plain terms, `CCCC(C)C` has a documented mass density of 627.22
